Below, each entry is listed alongside its reported percent of parent.
B1: TMEM59 peptide (residues 268–280), wild type [modified: long spacer (Tds) at the N-terminal end, used for immobilisation; long spacer (Tds) at the N-terminal end, used for immobilisation] [not stated] / GST-HA-ATG16L1(231–607) … (parent)
chain 1: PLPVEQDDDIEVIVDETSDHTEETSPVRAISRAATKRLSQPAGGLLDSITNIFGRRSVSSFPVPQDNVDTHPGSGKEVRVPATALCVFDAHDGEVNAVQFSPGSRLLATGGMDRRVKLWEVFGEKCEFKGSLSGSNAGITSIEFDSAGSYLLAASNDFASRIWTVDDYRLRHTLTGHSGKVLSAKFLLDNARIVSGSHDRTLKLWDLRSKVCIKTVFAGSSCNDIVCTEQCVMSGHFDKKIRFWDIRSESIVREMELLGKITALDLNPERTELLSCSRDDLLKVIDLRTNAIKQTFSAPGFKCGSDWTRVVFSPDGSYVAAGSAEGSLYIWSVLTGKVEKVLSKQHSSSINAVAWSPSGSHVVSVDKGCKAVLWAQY
chain 2: YVPSEKLSIYGDL

Variants of: B1
Assay: peptide microarray
Conditions: with GST-HA-ATG16L1(231–607) [human]; ligand 800, 600, 400 nM; parent: 100
Give just the number in % WT; leave the unit off.

Below are worked cases with known answers.
mutant_designation="chain 2 S4R" readout_name="percent of parent" observed_measurement=110
mutant_designation="chain 2 Y10S" readout_name="percent of parent" observed_measurement=3
mutant_designation="chain 2 G11V" readout_name="percent of parent" observed_measurement=13
mutant_designation="chain 2 G11R" readout_name="percent of parent" observed_measurement=62
mutant_designation="chain 2 V2P" readout_name="percent of parent" observed_measurement=41
mutant_designation="chain 2 P3R" readout_name="percent of parent" observed_measurement=131

Task: What percent of parent value was documented for this variant, chain 2 D12S ?
Result: 128

Task: Please report the recorded percent of parent for chain 2 P3H .
Result: 145

Task: Recorded percent of parent of chain 2 S4T , please.
Result: 69
